# Measurement Description: Probe fluorescence ratio response to linolenic acid relative to ADIFAB2
# Format: binding
# Condition Set: response relative to ADIFAB2
Value Type: DR/DR LNA

INSERT INTO measurements (molecule, value_type, value) VALUES
  ('72H 73Y 74G (protein, listed as Rattus norvegicus, PEPTIDE (1)...(131) wild-type rat intestinal fatty acid binding protein) AFDGTWKVDRNENYEKFMEKMGINVVKRKLGAHDNLKLTITQEGNKFTVKESSNFRNIDVVFELGVDFAYSHYGGTELTGTWTMEGNKLVGKFKRVDNGKELIAVREISGNELIQTYTYEGVEAKRIFKKE', 'DR/DR LNA', 0.591),
  ('104S2, 72A (protein, listed as Rattus norvegicus, PEPTIDE (1)...(131) wild-type rat intestinal fatty acid binding protein) AFDGTWKVDRNENYEKFMEKMGINVVKRKLGAHDNLKLTITQEGNKFTVKESSNFRNIDVVFELGVDFAYSAADGTELTGTWTMEGNKLVGKFKRVDNGKELISVREISGNELIQTYTYEGVEAKRIFKKE', 'DR/DR LNA', 1.54),
  ('55T1, 72A (protein, listed as Rattus norvegicus, PEPTIDE (1)...(131) wild-type rat intestinal fatty acid binding protein) AFDGTWKVDRNENYEKFMEKMGINVVKRKLGAHDNLKLTITQEGNKFTVKESSNTRNIDVVFELGVDFAYSAADGTELTGTWTMEGNKLVGKFKRVDNGKELIAVREISGNELIQTYTYEGVEAKRIFKKE', 'DR/DR LNA', 1.27),
  ('60Q, 72A (protein, listed as Rattus norvegicus, PEPTIDE (1)...(131) wild-type rat intestinal fatty acid binding protein) AFDGTWKVDRNENYEKFMEKMGINVVKRKLGAHDNLKLTITQEGNKFTVKESSNFRNIDQVFELGVDFAYSAADGTELTGTWTMEGNKLVGKFKRVDNGKELIAVREISGNELIQTYTYEGVEAKRIFKKE', 'DR/DR LNA', 0.42),
  ('72T 73W 74E (protein, listed as Rattus norvegicus, PEPTIDE (1)...(131) wild-type rat intestinal fatty acid binding protein) AFDGTWKVDRNENYEKFMEKMGINVVKRKLGAHDNLKLTITQEGNKFTVKESSNFRNIDVVFELGVDFAYSTWEGTELTGTWTMEGNKLVGKFKRVDNGKELIAVREISGNELIQTYTYEGVEAKRIFKKE', 'DR/DR LNA', 3.818),
  ('78C2, 72A (protein, listed as Rattus norvegicus, PEPTIDE (1)...(131) wild-type rat intestinal fatty acid binding protein) AFDGTWKVDRNENYEKFMEKMGINVVKRKLGAHDNLKLTITQEGNKFTVKESSNFRNIDVVFELGVDFAYSAADGTECTGTWTMEGNKLVGKFKRVDNGKELIAVREISGNELIQTYTYEGVEAKRIFKKE', 'DR/DR LNA', 0.20),
  ('11V, 72A (protein, listed as Rattus norvegicus, PEPTIDE (1)...(131) wild-type rat intestinal fatty acid binding protein) AFDGTWKVDRVENYEKFMEKMGINVVKRKLGAHDNLKLTITQEGNKFTVKESSNFRNIDVVFELGVDFAYSAADGTELTGTWTMEGNKLVGKFKRVDNGKELIAVREISGNELIQTYTYEGVEAKRIFKKE', 'DR/DR LNA', 0.763),
  ('31C1, 72A (protein, listed as Rattus norvegicus, PEPTIDE (1)...(131) wild-type rat intestinal fatty acid binding protein) AFDGTWKVDRNENYEKFMEKMGINVVKRKLCAHDNLKLTITQEGNKFTVKESSNFRNIDVVFELGVDFAYSAADGTELTGTWTMEGNKLVGKFKRVDNGKELIAVREISGNELIQTYTYEGVEAKRIFKKE', 'DR/DR LNA', 0.36),
  ('82F1, 72A (protein, listed as Rattus norvegicus, PEPTIDE (1)...(131) wild-type rat intestinal fatty acid binding protein) AFDGTWKVDRNENYEKFMEKMGINVVKRKLGAHDNLKLTITQEGNKFTVKESSNFRNIDVVFELGVDFAYSAADGTELTGTFTMEGNKLVGKFKRVDNGKELIAVREISGNELIQTYTYEGVEAKRIFKKE', 'DR/DR LNA', 0.76),
  ('31F, 72A (protein, listed as Rattus norvegicus, PEPTIDE (1)...(131) wild-type rat intestinal fatty acid binding protein) AFDGTWKVDRNENYEKFMEKMGINVVKRKLFAHDNLKLTITQEGNKFTVKESSNFRNIDVVFELGVDFAYSAADGTELTGTWTMEGNKLVGKFKRVDNGKELIAVREISGNELIQTYTYEGVEAKRIFKKE', 'DR/DR LNA', 1.647),
  ('21W 78F 72A (protein, listed as Rattus norvegicus, PEPTIDE (1)...(131) wild-type rat intestinal fatty acid binding protein) AFDGTWKVDRNENYEKFMEKWGINVVKRKLGAHDNLKLTITQEGNKFTVKESSNFRNIDVVFELGVDFAYSAADGTEFTGTWTMEGNKLVGKFKRVDNGKELIAVREISGNELIQTYTYEGVEAKRIFKKE', 'DR/DR LNA', 1.694);
